Test system: antibodies generated following vaccination with hapten 3
assay_method_text: Competitive ELISA, day 35 pooled sera of hapten 3 vaccine group
Assay type: binding, mice
condition_set: SCRA at 10 μM; day 35 pooled sera
property_name: % Inhibition, HAPTEN 3

As a guide, the following entries are already answered.
molecule | tested_system | value
CCCCCn1cc(C(=O)NC(C(=O)OC)C(C)C)c2ccccc21 (stereo not shown) | antibodies generated following vaccination with hapten 3 | 91.8%
CCCCCn1nc(C(=O)NC(C(=O)OC)C(C)C)c2ccccc21 (stereo not shown) | antibodies generated following vaccination with hapten 3 | 82.6%

Write down % Inhibition, HAPTEN 3 measured for item CCCCCn1cc(C(=O)Oc2cccc3ccccc23)c2ccccc21
19.2%

Give the measured % Inhibition, HAPTEN 3 for COC(=O)C(NC(=O)c1nn(Cc2ccc(F)cc2)c2ccccc12)C(C)C (stereo not shown)
76.0%
